TARGET_OF_ASSAY: calcium channel (Oryctolagus cuniculus)
Construct: from tissue; host or cells: rabbit heart membrane preparation
Sequence (P15381 whole entry, other chains not shown): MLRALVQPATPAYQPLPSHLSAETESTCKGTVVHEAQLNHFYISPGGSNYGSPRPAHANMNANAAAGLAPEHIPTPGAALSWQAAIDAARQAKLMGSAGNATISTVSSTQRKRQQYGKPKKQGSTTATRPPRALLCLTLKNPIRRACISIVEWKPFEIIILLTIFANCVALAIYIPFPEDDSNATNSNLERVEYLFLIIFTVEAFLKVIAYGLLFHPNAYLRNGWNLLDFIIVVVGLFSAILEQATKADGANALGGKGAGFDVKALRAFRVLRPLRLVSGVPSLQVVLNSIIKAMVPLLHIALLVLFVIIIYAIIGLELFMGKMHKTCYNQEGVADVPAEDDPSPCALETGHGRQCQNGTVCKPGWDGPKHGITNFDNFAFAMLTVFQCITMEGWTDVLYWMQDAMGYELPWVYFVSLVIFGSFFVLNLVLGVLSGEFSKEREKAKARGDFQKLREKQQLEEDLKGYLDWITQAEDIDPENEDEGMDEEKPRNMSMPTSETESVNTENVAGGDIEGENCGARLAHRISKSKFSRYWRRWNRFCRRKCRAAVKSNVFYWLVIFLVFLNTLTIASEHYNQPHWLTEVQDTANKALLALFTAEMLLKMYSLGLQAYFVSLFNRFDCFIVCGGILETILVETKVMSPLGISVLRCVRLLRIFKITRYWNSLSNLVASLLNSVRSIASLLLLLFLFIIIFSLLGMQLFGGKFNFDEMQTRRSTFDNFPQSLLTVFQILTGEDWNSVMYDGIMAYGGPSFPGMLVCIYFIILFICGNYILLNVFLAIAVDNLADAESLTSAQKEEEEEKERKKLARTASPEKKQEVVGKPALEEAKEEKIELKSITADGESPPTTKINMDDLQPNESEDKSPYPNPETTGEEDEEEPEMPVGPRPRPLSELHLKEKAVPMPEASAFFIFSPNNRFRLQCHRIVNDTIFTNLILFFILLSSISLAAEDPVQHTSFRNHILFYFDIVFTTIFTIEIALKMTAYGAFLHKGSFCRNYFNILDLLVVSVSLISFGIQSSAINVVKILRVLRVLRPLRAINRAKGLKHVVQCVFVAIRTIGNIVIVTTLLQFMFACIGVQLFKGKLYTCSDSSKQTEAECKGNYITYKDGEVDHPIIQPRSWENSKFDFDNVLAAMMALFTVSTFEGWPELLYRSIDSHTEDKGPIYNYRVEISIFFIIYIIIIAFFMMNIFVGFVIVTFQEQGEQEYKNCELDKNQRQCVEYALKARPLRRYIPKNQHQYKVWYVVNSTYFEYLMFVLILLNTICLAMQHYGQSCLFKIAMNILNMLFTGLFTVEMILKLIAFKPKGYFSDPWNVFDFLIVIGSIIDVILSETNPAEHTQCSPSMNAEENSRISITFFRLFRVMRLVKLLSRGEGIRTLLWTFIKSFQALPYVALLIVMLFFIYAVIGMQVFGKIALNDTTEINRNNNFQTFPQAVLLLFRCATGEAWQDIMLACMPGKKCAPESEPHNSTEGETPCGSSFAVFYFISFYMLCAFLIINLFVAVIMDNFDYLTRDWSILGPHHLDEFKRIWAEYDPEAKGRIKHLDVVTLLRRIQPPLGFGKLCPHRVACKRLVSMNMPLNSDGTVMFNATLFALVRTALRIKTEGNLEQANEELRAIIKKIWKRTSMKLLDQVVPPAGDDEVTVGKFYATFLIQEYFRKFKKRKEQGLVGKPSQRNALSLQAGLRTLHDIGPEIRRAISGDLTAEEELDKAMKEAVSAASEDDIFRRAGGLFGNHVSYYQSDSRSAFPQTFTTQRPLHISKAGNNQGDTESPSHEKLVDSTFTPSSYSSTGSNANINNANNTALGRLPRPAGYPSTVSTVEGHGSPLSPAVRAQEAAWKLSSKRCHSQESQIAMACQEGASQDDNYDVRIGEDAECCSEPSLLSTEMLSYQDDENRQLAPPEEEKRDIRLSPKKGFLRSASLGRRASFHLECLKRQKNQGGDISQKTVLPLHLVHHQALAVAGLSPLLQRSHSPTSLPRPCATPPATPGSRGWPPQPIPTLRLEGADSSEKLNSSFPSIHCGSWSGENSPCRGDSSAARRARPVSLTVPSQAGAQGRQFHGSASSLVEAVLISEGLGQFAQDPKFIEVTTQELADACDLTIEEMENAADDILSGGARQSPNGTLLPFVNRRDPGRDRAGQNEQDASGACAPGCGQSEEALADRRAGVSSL
Sequence (P13806 27-960 partner limits assumed, other chains not shown): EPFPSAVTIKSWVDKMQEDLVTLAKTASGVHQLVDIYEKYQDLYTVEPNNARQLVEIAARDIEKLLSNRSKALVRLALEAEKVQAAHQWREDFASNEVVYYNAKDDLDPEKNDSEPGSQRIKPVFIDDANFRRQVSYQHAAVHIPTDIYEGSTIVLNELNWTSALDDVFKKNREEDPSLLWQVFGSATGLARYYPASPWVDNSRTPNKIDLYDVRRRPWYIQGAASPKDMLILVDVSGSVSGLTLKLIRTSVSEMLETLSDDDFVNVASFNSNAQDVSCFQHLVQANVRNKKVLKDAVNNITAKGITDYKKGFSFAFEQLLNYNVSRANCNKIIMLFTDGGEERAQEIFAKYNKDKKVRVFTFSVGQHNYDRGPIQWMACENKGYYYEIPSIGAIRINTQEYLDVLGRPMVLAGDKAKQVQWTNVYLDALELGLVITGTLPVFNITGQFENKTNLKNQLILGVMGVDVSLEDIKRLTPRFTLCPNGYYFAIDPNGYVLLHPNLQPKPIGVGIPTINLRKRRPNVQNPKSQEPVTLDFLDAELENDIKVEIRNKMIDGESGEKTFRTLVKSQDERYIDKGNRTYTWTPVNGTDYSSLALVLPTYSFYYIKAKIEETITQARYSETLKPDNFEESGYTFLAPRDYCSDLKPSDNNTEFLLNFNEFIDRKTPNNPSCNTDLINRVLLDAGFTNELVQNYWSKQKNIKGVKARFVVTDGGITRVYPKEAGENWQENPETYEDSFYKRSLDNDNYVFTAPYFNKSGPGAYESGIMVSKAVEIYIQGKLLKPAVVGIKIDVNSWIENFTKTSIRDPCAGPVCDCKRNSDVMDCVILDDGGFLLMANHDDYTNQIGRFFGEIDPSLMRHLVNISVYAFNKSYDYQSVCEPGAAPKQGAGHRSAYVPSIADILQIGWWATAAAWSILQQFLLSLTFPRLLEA
Sequence (P13806 961-1106 partner limits assumed, other chains not shown): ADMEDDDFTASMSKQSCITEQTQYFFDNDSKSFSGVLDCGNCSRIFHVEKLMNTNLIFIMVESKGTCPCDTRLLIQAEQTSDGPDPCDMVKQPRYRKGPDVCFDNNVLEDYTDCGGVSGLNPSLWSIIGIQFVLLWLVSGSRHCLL
ASSAY_NOTES: Assay for Inhibition of Nitrendipine Binding (3H-nitrendipine, heart membranes)
CONDITION_SET: 3H-nitrendipine displacement, rabbit heart membranes; Tables 1-5
pIC50: −log10 of the molar value.
Please enter TRUE where pIC50 is greater than or equal to 7, and FALSE where it is lower.

Query: Please tell me: is the compound CC1=C(C(=O)OCCN(C)Cc2ccccc2)[C@@H](c2c(F)cccc2Cl)C2=C(CS(=O)(=O)CCS2(=O)=O)N1 (single isomer, unassigned) at or over 7 in terms of pIC50?
Reply: TRUE

Query: Please tell me: is the compound CC1=C(C(=O)OCCN(C)Cc2ccccc2)C(c2c(F)cccc2C(F)(F)F)C2=C(CS(=O)(=O)CCS2(=O)=O)N1 (stereo not shown) at or over 7 in terms of pIC50?
Reply: TRUE

Query: Please tell me: is the compound C=C1CS(=O)(=O)C2=C(CS1(=O)=O)NC(C)=C(C(=O)OCCN(C)Cc1ccccc1)C2c1cccc(C(F)(F)F)c1F (stereo not shown) at or over 7 in terms of pIC50?
Reply: TRUE

Query: Please tell me: is the compound COC(=O)C1=C(C)NC2=C(C1c1c(F)cccc1F)S(=O)(=O)CCS(=O)(=O)C2 (stereo not shown) at or over 7 in terms of pIC50?
Reply: FALSE

Query: Please tell me: is the compound CC1=C(C(=O)OCCN(C)Cc2ccccc2)C(c2cccc([N+](=O)[O-])c2)C2=C(CS(=O)(=O)C(CO)CS2(=O)=O)N1 (stereo not shown) at or over 7 in terms of pIC50?
Reply: FALSE

Query: Please tell me: is the compound CC1=C(C(=O)OCCN(C)Cc2ccccc2)C(c2cc(F)c(F)c(F)c2)C2=C(CS(=O)(=O)CCS2(=O)=O)N1 (stereo not shown) at or over 7 in terms of pIC50?
Reply: TRUE
